# ASSAY PROTOCOL: Plasma pharmacokinetics after single oral dose of Δ8-THCV in MCT oil (LC-MS/MS, non-compartmental analysis)
# Type: in vivo, human
# STATED CONDITIONS: human, plasma, po, 200 mg, 200 mg single oral Δ8-THCV in MCT oil; Mean (±SD)
Below, each entry is listed alongside its reported log10 Cmax.
MEASUREMENT KIND: log10 Cmax (log10 of the value in ng/mL)

>>> endpoint_result("CCCc1cc(O)c2c(c1)OC(C)(C)[C@@H]1CCC(C)=C[C@@H]21 [Δ9-THCV, Δ9-tetrahydrocannabivarin]")
0.30
>>> endpoint_result("CCCc1cc(O)c2c(c1)OC(C)(C)[C@@H]1CC=C(C(=O)O)C[C@@H]21")
3.24
>>> endpoint_result("CCCc1cc(O)c2c(c1)OC(C)(C)[C@@H]1CC=C(C)C[C@@H]21 [Δ8-THCV, Δ8-tetrahydrocannabivarin]")
1.72
>>> endpoint_result("CCCc1cc(O)c2c(c1)OC(C)(C)[C@@H]1CCC(C(=O)O)=C[C@@H]21")
1.70
>>> endpoint_result("CCCCCc1cc(O)c2c(c1)OC(C)(C)[C@@H]1CC=C(C(=O)O)CC21 (single isomer, unassigned; (+)) [Δ8-THC-COOH, (+)-11-nor-Δ8-THC-9-carboxylic acid]")
0.38
>>> endpoint_result("CCCc1cc(O)c2c(c1)OC(C)(C)[C@@H]1CC=C(CO)C[C@@H]21 (racemic) [11-OH-Δ8-THCV, (±)-11-hydroxy-Δ8-THCV]")
0.94

###

# ASSAY PROTOCOL: Plasma pharmacokinetics after single oral dose of Δ8-THCV in MCT oil (LC-MS/MS, non-compartmental analysis)
# Format: in vivo, human
# Design: unit not given here
# STATED CONDITIONS: 200 mg single oral Δ8-THCV in MCT oil; plasma; Mean (±SD)
Consider the following compounds and their measured Clast (last quantifiable concentration) readings.
MEASUREMENT KIND: Clast (last quantifiable concentration)

>>> endpoint_result("CCCCCc1cc(O)c2c(c1)OC(C)(C)[C@@H]1CC=C(C(=O)O)CC21 (single isomer, unassigned; (+)) [Δ8-THC-COOH, (+)-11-nor-Δ8-THC-9-carboxylic acid]")
"1.9 (±0.6)"
>>> endpoint_result("CCCc1cc(O)c2c(c1)OC(C)(C)[C@@H]1CCC(C)=C[C@@H]21 [Δ9-THCV, Δ9-tetrahydrocannabivarin]")
"1.5 (±1)"
>>> endpoint_result("CCCc1cc(O)c2c(c1)OC(C)(C)[C@@H]1CCC(C(=O)O)=C[C@@H]21")
"29.2 (±16.1)"
>>> endpoint_result("CCCc1cc(O)c2c(c1)OC(C)(C)[C@@H]1CC=C(C(=O)O)C[C@@H]21")
"917 (±582)"
>>> endpoint_result("CCCc1cc(O)c2c(c1)OC(C)(C)[C@@H]1CC=C(C)C[C@@H]21 [Δ8-THCV, Δ8-tetrahydrocannabivarin]")
"21.2 (±23.2)"
>>> endpoint_result("CCCc1cc(O)c2c(c1)OC(C)(C)[C@@H]1CC=C(CO)C[C@@H]21 (racemic) [11-OH-Δ8-THCV, (±)-11-hydroxy-Δ8-THCV]")
"3.7 (±2.6)"

###

# ASSAY PROTOCOL: Plasma pharmacokinetics after single oral dose of Δ8-THCV in MCT oil (LC-MS/MS, non-compartmental analysis)
# Type: in vivo, human
# STATED CONDITIONS: human, plasma, po, 50 mg, 50 mg single oral Δ8-THCV in MCT oil; Median (Range)
MEASUREMENT KIND: AUC(0-t) (ng·h/mL)

>>> endpoint_result("CCCc1cc(O)c2c(c1)OC(C)(C)[C@@H]1CC=C(C)C[C@@H]21 [Δ8-THCV, Δ8-tetrahydrocannabivarin]")
24.9
>>> endpoint_result("CCCc1cc(O)c2c(c1)OC(C)(C)[C@@H]1CC=C(CO)C[C@@H]21 (racemic) [11-OH-Δ8-THCV, (±)-11-hydroxy-Δ8-THCV]")
5.3
>>> endpoint_result("CCCc1cc(O)c2c(c1)OC(C)(C)[C@@H]1CCC(C(=O)O)=C[C@@H]21 [Δ9-THCV-COOH, 11-nor-9-carboxy-Δ9-THCV]")
30.8
>>> endpoint_result("CCCc1cc(O)c2c(c1)OC(C)(C)[C@@H]1CC=C(C(=O)O)C[C@@H]21 [Δ8-THCV-COOH, 11-nor-9-carboxy-Δ8-THCV]")
1090
